Experiment: Effect on calcein accumulation in multidrug-resistant human 2780AD cells at 2.5 ug/ml relative to control
Format: functional, A2780 ADR
A collection of molecules and their measured Activity
Provide only the numeric value, understood in %.

1. CC(=O)O[C@H]1C(=O)[C@]2(C)CC[C@H]3OC[C@@]3(O)[C@H]2[C@H](OC(=O)c2ccccc2)[C@@H]2C[C@H](O)C(C)=C1C2(C)C; 129
2. CC(=O)O[C@H]1C(=O)[C@@]2(C)[C@H]([C@H](OC(=O)c3ccccc3)[C@]3(O)C[C@H](O)C(C)=C1C3(C)C)[C@]1(OC(C)=O)CO[C@@H]1C[C@@H]2O; 84
3. CC(=O)O[C@H]1[C@H](O)C2=C(C)C(=O)C[C@@H]([C@@H](OC(=O)c3ccccc3)[C@H]3[C@@]1(C)CC[C@H]1OC[C@]13O)C2(C)C; 118
4. CC(=O)O[C@@H]1[C@@H]2C[C@@H](O)C(C)=C([C@@H](OC(C)=O)[C@H](OC(C)=O)[C@]3(C)CC[C@H]4OC[C@@]4(O)[C@@H]13)C2(C)C; 95
5. COc1ccc(CCN(C)CCCC(C#N)(c2ccc(OC)c(OC)c2)C(C)C)cc1OC (configuration not stated); 103
6. CC(=O)O[C@@]12CO[C@@H]1C[C@H](O)[C@@]1(C)C(=O)[C@H](O)C3=C(C)[C@@H](O)C[C@@](O)([C@@H](OC(=O)c4ccccc4)[C@H]21)C3(C)C; 90
7. CC(=O)O[C@@H]1[C@@H]2CC(=O)C(C)=C([C@@H](OC(C)=O)[C@H](OC(C)=O)[C@]3(C)CC[C@H]4OC[C@@]4(O)[C@@H]13)C2(C)C; 120
8. CC(=O)O[C@@H]1[C@@H]2C[C@H](O)C(C)=C([C@@H](OC(C)=O)[C@H](OC(C)=O)[C@]3(C)CC[C@H]4OC[C@@]4(O)[C@@H]13)C2(C)C; 95
9. CC(=O)O[C@@H]1C2=C(C)C(=O)C[C@@H]([C@@H](OC(=O)c3ccccc3)[C@H]3[C@@](C)(CC[C@H]4OC[C@]43O)[C@H]1OC(C)=O)C2(C)C; 119
10. CC(=O)O[C@H]1C(=O)[C@]2(C)CC[C@H]3OC[C@@]3(O)[C@H]2[C@H](OC(=O)c2ccccc2)[C@@H]2CC(=O)C(C)=C1C2(C)C; 120

In: Looking for the measured Activity of `CC(=O)O[C@@H]1C2=C(C)C(=O)C[C@@H]([C@@H](OC(=O)c3ccccc3)[C@H]3[C@@](C)(CC[C@H]4OC[C@]43O)[C@H]1O)C2(C)C` , can you help?
Out: 102

In: Give the measured Activity of `CC(=O)OC[C@]1(O)[C@@H](O)CC[C@@]2(C)[C@@H](OC(C)=O)[C@H](OC(C)=O)C3=C(C)C(=O)C[C@@H]([C@@H](O)[C@@H]21)C3(C)C` .
Out: 97
